target: c-Src SH2; assay: SH2 binding enrichment of the phosphorylated peptide, bacterial display (enrichment ratio); higher = better substrate or ligand; peptides without Tyr show the background;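 note: peptide library displayed on the E. coli surface as eCPX fusions, selected cells deep-sequenced, score is each peptide's frequency after selection divided by its frequency in the input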
Endpoint Label: SH2 binding enrichment

Known SH2 binding enrichment results, listed for orientation:
Item Sequence | Measured Result
EFKKKYSDADI [CKAP5_Y1860_YF] | 0.487
WQQQSYLDSGI [CTNNB1_Y30] | 0.571
GHGEEYPAAGA [NOTCH3_Y2221] | 0.384

(A) TRLAQYDSNSK [BMX_Y216_S212R]
(B) QRPGPYDRPGA [HNRNPH2_Y210]
Lowest SH2 binding enrichment? choose A or B # respond with the chosen item's label
A
(A: 0.637, B: 1.05)

(a) IFQASYFRRGD [LTK_Y676_R673Q_YF]
(b) YSKTQYNQVPS [CXADR_Y318]
Select the item whose SH2 binding enrichment value is smaller, choosing between a and b . Use the label to indicate which entry you chose.
a

(A) TTTQAYRVNER [PRKN_Y391_D394N]
(B) YGSGNYNDFGN [HNRNPA2B1_Y300]
(C) HRDSSYYWEIE [RAF1_Y340_Q335H]
(D) RFMVGYEMLAQ [GALT_Y339_K334R]
Task field, ranking: reported SH2 binding enrichment, descending order. Dear reader, please state the labels in the requested order.
C, D, B, A
(C: 10.9, D: 2.32, B: 0.68, A: 0.438)

(P) NELTYYCCKKD [CD59_Y87]
(Q) IKGIRYLHHQG [GUCY2D_Y656_R660Q]
(R) LTGIAYSLPHW [SLC22A14_Y291]
Ascending sort, SH2 binding enrichment. # format: label list in the order the request specifies
P, Q, R
